# assay_protocol: Competitive inhibition of recombinant GES-5 expressed in Escherichia coli BL21(DE3) using nitrocefin substrate by spectrophotometry
pKi: −log10 of the molar value.
Rule: pKi under 5 gives 0 (no), otherwise 1 (yes).

# given_smiles, discrete_label
measured = [
    ("CC(C)(C)OC(=O)Nc1cccc2cc(B(O)O)sc12", "1 (yes)"),
    ("O=C(O)c1cccc2cc(B(O)O)sc12", "1 (yes)"),
    ("NCc1ccc2sc(B(O)O)cc2c1", "0 (no)"),
    ("CC(C)(C)OC(=O)c1cccc2cc(B(O)O)sc12", "0 (no)"),
    ("O=CN(C=O)Cc1ccc2sc(B(O)O)cc2c1", "0 (no)"),
]

====

# assay_protocol: Inhibition of bacterial OXA-24 using cephalothin as reporter substrate incubated for 300 secs by spectrophotometric assay
# Parameters: species or system Bacteria
pKi: −log10 of the molar value.

# given_smiles, pKi
measured = [
    ("OB(O)c1cc2cc(CBr)ccc2s1", 4.17),
    ("O=C(O)c1cccc2cc(B(O)O)sc12", 4.80),
    ("NCc1ccc2sc(B(O)O)cc2c1", 4.02),
    ("CC(C)(C)OC(=O)Nc1cccc2cc(B(O)O)sc12", 4.19),
    ("CC(C)(C)OC(=O)c1cccc2cc(B(O)O)sc12", 4.57),
]

====

# assay_protocol: Inhibition of bacterial NDM1 using cephalothin as reporter substrate incubated for 300 secs by spectrophotometric assay
# Parameters: species or system Bacteria
pKi: −log10 of the molar value.

# given_smiles, pKi
data = [
    ("OB(O)c1cc2cc(CBr)ccc2s1", 5.23),
    ("CC(C)(C)OC(=O)c1cccc2cc(B(O)O)sc12", 5.49),
    ("O=C(O)c1cccc2cc(B(O)O)sc12", 5.52),
    ("NCc1ccc2sc(B(O)O)cc2c1", 5.26),
    ("CC(C)(C)OC(=O)Nc1cccc2cc(B(O)O)sc12", 4.96),
]
